Where do these numbers come from? They come from PubChem BioAssay (NCI).

test system: HT29 colon; test: NCI tumour cell line growth inhibition, 48 h
Collected TGI values appear next to each entry.

- molecule: "CC(C)(C)c1ccccc1NS(=O)(=O)c1ccccc1"
  TGI: "> 100 µM"
- molecule: "COC(=O)/C(C#N)=C1\\N=NNN1CCCc1ccccc1"
  TGI: "> 100 µM"
- molecule: "N#CC(C#N)=C1NC(=O)C(c2ccccc2)C(=O)N1 (stereo not drawn)"
  TGI: "> 100 µM"
- molecule: "O=C1C(c2ccccc2)=C(c2ccccc2)C(c2ccccc2)/C1=C1\\C(=O)C(c2ccccc2)=C(c2ccccc2)C1c1ccccc1 (stereo not drawn)"
  TGI: "> 100 µM"
- molecule: "O=C1NC(=NCCc2ccccc2Cl)S/C1=C\\c1ccc2ncccc2c1"
  TGI: "> 18.9 µM"

# return TGI for Cc1ccc(Nc2ncnc3sc(SCc4ccccc4)nc23)cc1 , test system: HT29 colon
> 100 µM

Enter recorded TGI with HT29 colon for O=C1c2cccc3cccc(c23)C(=O)N1CCCCOc1ccc(-c2nc3ccc(N4CCOCC4)cc3[nH]2)cc1 here.
> 35.3 µM

// fetch TGI for O=C(Nc1ccccc1Cl)c1ccc(NC2=C(Cl)C(=O)N(Cc3ccccc3)C2=O)cc1 ; system: HT29 colon
> 100 µM

---

The compounds listed here are annotated with their TGI.
tested on: KM12 colon; test: NCI tumour cell line growth inhibition, 48 h

Consider the reported TGI for these compounds:
- cpdSmiles: "NS(=O)(=O)c1ccc(CNC(=S)NC(=O)Nc2ccc(Cl)c(Cl)c2)cc1"
  TGI: "43.1 µM"
- cpdSmiles: "Cc1cccc(Nc2cn(CCOc3ccccc3)c(=O)[nH]c2=O)c1"
  TGI: "> 100 µM"
- cpdSmiles: "N=C(/C=C/c1ccc(-c2cn3cc(/C=C/C(=N)N4CCOCC4)ccc3n2)cc1)N1CCOCC1"
  TGI: "> 100 µM"
- cpdSmiles: "CCOC(=O)Cc1csc(/N=C\\c2c(O)c3ccccc3oc2=O)n1"
  TGI: "> 100 µM"
- cpdSmiles: "O=C(/C=N/O)c1c(-c2ccccc2)[nH]c(-c2ccccc2)c1-c1ccccc1"
  TGI: "28.2 µM"

Would you please give the reported TGI of COCOc1cc(OC)ccc1C=O with KM12 colon?
> 100 µM

Name the value of TGI reported for COc1ccc(N=NN2CCCC2)cc1 when tested on KM12 colon.
14.7 µM

---

tested on: SN12C renal; test: NCI tumour cell line growth inhibition, 48 h; in the data active = GI50 below about 0.43 µM; inactive = the rest
Hi there, use one of these labels in your reply, thanks! y for active, n for inactive

Known results for molecules:
- molecule: "CC(=O)OC1CC2(O)C(CCC3(C)C(c4ccc(=O)oc4)CCC32O)C2(C)CCC(O)C=C12 (centres undefined)"
  qualitativeLabel: "y"
- molecule: "CN1CCN(c2ccc3nc(-c4ccc(OCCCN5C(=O)c6cccc7cccc(c67)C5=O)cc4)[nH]c3c2)CC1"
  qualitativeLabel: "n"
- molecule: "COc1cc2c(/C=C3\\C(=O)Nc4ccc(Br)cc43)c(Cl)n(C)c2cc1C"
  qualitativeLabel: "n"

Attention now shifts to the item below.
Give the logged outcome of this assay for the following molecule: C=C1C(=O)O[C@H]2[C@H]1CC/C(Cn1cc(CCC)nn1)=C\CC[C@@]1(C)O[C@@H]21
n

---

system: OVCAR-3 ovarian; experiment: NCI tumour cell line growth inhibition, 48 h; in the data active = GI50 below about 0.43 µM; inactive = the rest
Hello, when you answer, please use one of the following outcomes: active, inactive

- compound: "COc1ccc(-n2c(N)c(C(=O)NCCN3CCOCC3)c3nc4ccccc4nc32)cc1OC"
  targetUnderTest: "OVCAR-3 ovarian"
  qualitativeLabel: "inactive"
- compound: "Oc1ccc2ccccc2c1/C=N\\Nc1ccccn1"
  targetUnderTest: "OVCAR-3 ovarian"
  qualitativeLabel: "active"
- compound: "COc1cc2c(/C=C3\\C(=O)Nc4ccc(Br)cc43)c(Cl)n(C)c2cc1C"
  targetUnderTest: "OVCAR-3 ovarian"
  qualitativeLabel: "inactive"

State the result this test recorded for CC1=C(C)C(=O)C(C(C)C2=C(C)C(=O)C(C)=C(C)C2=O)=C(C)C1=O .
inactive

Check the results log: what was the call for COc1cccc2c1C(=O)c1c(O)c3c(c(O)c1C2=O)C[C@@](O)(C(C)=O)C[C@@H]3OC1CC(N)C(O)C(C)O1 (stereo partly drawn) ?
active

For COc1ccc(/C=C(/C(=O)N2CCNCC2)c2cc(OC)c(OC)c(OC)c2)cc1O , which call appears in the assay record?
inactive

I'd appreciate the recorded outcome for Nc1nc(Cl)nc2c1ncn2C1O[C@H](CO)[C@@H](O)[C@@H]1F (stereo partly drawn) from this test.
inactive

Write down the call the test reported for this compound. Item: COc1ccc2c(CNCCCCO)cc3cc4c(cc3c2c1)OCO4
inactive

Look up the recorded call for Cc1c2c(nn1-c1ccc(S/N=C3\SCC(=O)CN3c3ccccc3)cc1)-c1ccccc1CC2 in this test.
inactive

Identify the outcome logged in this assay for the compound shown: CCCCCCCCSC1=CC(=O)C(OC)=C(OC)C1=O
inactive
